method description: Selectivity index, ratio of IC50 for CHO cells to IC50 for chloroquine-sensitive Plasmodium falciparum D10
Assay type: toxicity, cell-based
assay context: hamster, read-out: Ratio IC50
// reported selectivity ratio for each item listed
When you answer, write just the number.

# compound, selectivity ratio
data = [
    ("Cc1ccc2c(Cl)cc(Cl)c(OCC(C)CCNCc3ccc(Cl)cc3)c2n1 (stereo not given)", 2),
    ("CCN(CC)CCC(C)COc1c(Cl)cc(Cl)c2ccc(C)nc12 (stereo not given)", 57),
    ("Clc1ccc(CNCCCCOc2cccc3ncccc23)cc1", 34),
    ("CCN(CC)CCC(C)Cc1cc(Cl)c2cccnc2c1O (stereo not given)", 5),
]

Okay, next one:
Query block: Data request, read-out selectivity ratio, for "Clc1ccc(CNCCCCOc2ccc3ncccc3c2)cc1"
Result block: 29
